// data source = ChEMBL document CHEMBL4665792

# System: HT-29
# method: Antiproliferative activity against human HT-29 cells assessed as reduction in cell viability incubated for 24 hrs by MTT assay
# Type: functional, cell-based
# particulars: HT-29, 24 h

# smiles repr, IC50
records = [
    ("CC(=O)O[C@H]1C=C([C@H](C)[C@H]2CC(C)=C(C)C(=O)O2)[C@@]2(C)CC[C@H]3[C@@H](C[C@H]4O[C@]45[C@@H](OC(=O)CNC(=O)OC(C)(C)C)C=CC(=O)[C@]35C)[C@]12O", "630 nM"),
    ("CC(=O)O[C@H]1C=C([C@H](C)[C@H]2CC(C)=C(C)C(=O)O2)[C@@]2(C)CC[C@H]3[C@@H](C[C@H]4O[C@]45[C@@H](OC(=O)C=C(C)C)C=CC(=O)[C@]35C)[C@]12O", "460 nM"),
    ("CC(=O)O[C@H]1C=C([C@H](C)[C@H]2CC(C)=C(C)C(=O)O2)[C@@]2(C)CC[C@H]3[C@@H](C[C@H]4O[C@]45[C@@H](OC(=O)/C=C/c4cccs4)C=CC(=O)[C@]35C)[C@]12O", "430 nM"),
    ("CC(=O)O[C@H]1C=C([C@H](C)[C@H]2CC(C)=C(C)C(=O)O2)[C@@]2(C)CC[C@H]3[C@@H](C[C@H]4O[C@]45[C@@H](OC(=O)/C=C/c4ccco4)C=CC(=O)[C@]35C)[C@]12O", "450 nM"),
]

====

# System: HepG2
# method: Antiproliferative activity against human HepG2 cells assessed as reduction in cell viability incubated for 24 hrs by MTT assay
# Format: functional, cell-based
# particulars: HepG2, 24 h
pIC50: −log10 of the molar value.
measured endpoint: pIC50

# smiles repr, readout value
measured = [
    ("CC(=O)O[C@H]1C=C([C@H](C)[C@H]2CC(C)=C(C)C(=O)O2)[C@@]2(C)CC[C@H]3[C@@H](C[C@H]4O[C@]45[C@@H](OC(=O)N(C)C)C=CC(=O)[C@]35C)[C@]12O", 5.97),
    ("CC(=O)O[C@H]1C=C([C@H](C)[C@H]2CC(C)=C(C)C(=O)O2)[C@@]2(C)CC[C@H]3[C@@H](C[C@H]4O[C@]45[C@@H](OC(=O)c4cccs4)C=CC(=O)[C@]35C)[C@]12O", 5.54),
    ("C=C(C)C(=O)O[C@H]1C=CC(=O)[C@]2(C)[C@H]3CC[C@]4(C)C([C@H](C)[C@H]5CC(C)=C(C)C(=O)O5)=C[C@H](OC(C)=O)[C@@]4(O)[C@@H]3C[C@H]3O[C@]132", 5.84),
    ("CC(=O)O[C@H]1C=C([C@H](C)[C@H]2CC(C)=C(C)C(=O)O2)[C@@]2(C)CC[C@H]3[C@@H](C[C@H]4O[C@]45[C@@H](OC(=O)CCc4ccccc4)C=CC(=O)[C@]35C)[C@]12O", 5.24),
    ("COC(=O)O[C@H]1C=CC(=O)[C@]2(C)[C@H]3CC[C@]4(C)C([C@H](C)[C@H]5CC(C)=C(C)C(=O)O5)=C[C@H](OC(C)=O)[C@@]4(O)[C@@H]3C[C@H]3O[C@]132", 5.55),
    ("CC(=O)O[C@H]1C=C([C@H](C)[C@H]2CC(C)=C(C)C(=O)O2)[C@@]2(C)CC[C@H]3[C@@H](C[C@H]4O[C@]45[C@@H](OC(=O)/C=C/c4cccs4)C=CC(=O)[C@]35C)[C@]12O", 6.28),
]

====

# method: Selectivity index, ratio IC50 for human L02 cells to IC50 for human HT-29 cells
# Format: toxicity
# particulars: L02 cells versus HT-29 cells, read-out: Ratio IC50
measured endpoint: selectivity ratio

# smiles repr, measured endpoint, readout value
measured = [
    ("CC(=O)O[C@H]1C=C([C@H](C)[C@H]2CC(C)=C(C)C(=O)O2)[C@@]2(C)CC[C@H]3[C@@H](C[C@H]4O[C@]45[C@@H](OC(=O)/C=C/C(=O)N(C)C)C=CC(=O)[C@]35C)[C@]12O", "selectivity ratio", 66),
]

====

log10(IC50): recorded values
# System: HT-29
# method: Antiproliferative activity against human HT-29 cells assessed as reduction in cell viability incubated for 24 hrs by MTT assay
# Format: functional, cell-based
# particulars: HT-29, 24 h
measured endpoint: log10(IC50) (log10 of the value in µM)

# compound, readout value
records = [
    ("CC(=O)O[C@H]1C=C([C@H](C)[C@H]2CC(C)=C(C)C(=O)O2)[C@@]2(C)CC[C@H]3[C@@H](C[C@H]4O[C@]45[C@@H](OC(=O)/C=C/C(=O)N(C(C)C)C(C)C)C=CC(=O)[C@]35C)[C@]12O", -0.72),
    ("C/C=C/C(=O)O[C@H]1C=CC(=O)[C@]2(C)[C@H]3CC[C@]4(C)C([C@H](C)[C@H]5CC(C)=C(C)C(=O)O5)=C[C@H](OC(C)=O)[C@@]4(O)[C@@H]3C[C@H]3O[C@]132", -0.43),
    ("CC(=O)O[C@H]1C=C([C@H](C)[C@H]2CC(C)=C(C)C(=O)O2)[C@@]2(C)CC[C@H]3[C@@H](C[C@H]4O[C@]45[C@@H](O[Si](C)(C)C(C)(C)C)C=CC(=O)[C@]35C)[C@]12O", 0.03),
    ("CC(=O)O[C@H]1C=C([C@H](C)[C@H]2CC(C)=C(C)C(=O)O2)[C@@]2(C)CC[C@H]3[C@@H](C[C@H]4O[C@]45[C@@H](OC(=O)N(C)C)C=CC(=O)[C@]35C)[C@]12O", 0.00),
    ("CC(=O)O[C@H]1C=C([C@H](C)[C@H]2CC(C)=C(C)C(=O)O2)[C@@]2(C)CC[C@H]3[C@@H](C[C@H]4O[C@]45[C@@H](OC(=O)N4CCCC4)C=CC(=O)[C@]35C)[C@]12O", 0.05),
    ("CC(=O)O[C@H]1C=C([C@H](C)[C@H]2CC(C)=C(C)C(=O)O2)[C@@]2(C)CC[C@H]3[C@@H](C[C@H]4O[C@]45[C@@H](OC(=O)CCc4ccccc4)C=CC(=O)[C@]35C)[C@]12O", 0.61),
    ("CCN(CC)C(=O)/C=C/C(=O)O[C@H]1C=CC(=O)[C@]2(C)[C@H]3CC[C@]4(C)C([C@H](C)[C@H]5CC(C)=C(C)C(=O)O5)=C[C@H](OC(C)=O)[C@@]4(O)[C@@H]3C[C@H]3O[C@]132", -0.52),
    ("CC(=O)O[C@H]1C=C([C@H](C)[C@H]2CC(C)=C(C)C(=O)O2)[C@@]2(C)CC[C@H]3[C@@H](C[C@H]4O[C@]45[C@@H](OC(=O)/C=C/C(=O)N(C)C)C=CC(=O)[C@]35C)[C@]12O", -1.10),
    ("CC(=O)O[C@H]1C=C([C@H](C)[C@H]2CC(C)=C(C)C(=O)O2)[C@@]2(C)CC[C@H]3[C@@H](C[C@H]4O[C@]45[C@@H](OC(=O)C(CC(C)C)NC(=O)OC(C)(C)C)C=CC(=O)[C@]35C)[C@]12O (some centres not stated)", -0.11),
    ("CC(=O)O[C@H]1C=C([C@H](C)[C@H]2CC(C)=C(C)C(=O)O2)[C@@]2(C)CC[C@H]3[C@@H](C[C@H]4O[C@]45[C@@H](OC(=O)/C=C/c4ccc(F)cc4)C=CC(=O)[C@]35C)[C@]12O", -0.14),
    ("CCOC(=O)/C=C/C(=O)O[C@H]1C=CC(=O)[C@]2(C)[C@H]3CC[C@]4(C)C([C@H](C)[C@H]5CC(C)=C(C)C(=O)O5)=C[C@H](OC(C)=O)[C@@]4(O)[C@@H]3C[C@H]3O[C@]132", -0.64),
    ("CC(=O)O[C@H]1C=C([C@H](C)[C@H]2CC(C)=C(C)C(=O)O2)[C@@]2(C)CC[C@H]3[C@@H](C[C@H]4O[C@]45[C@@H](OC(=O)c4cccs4)C=CC(=O)[C@]35C)[C@]12O", 0.38),
    ("CCO/C=C/C(=O)O[C@H]1C=CC(=O)[C@]2(C)[C@H]3CC[C@]4(C)C([C@H](C)[C@H]5CC(C)=C(C)C(=O)O5)=C[C@H](OC(C)=O)[C@@]4(O)[C@@H]3C[C@H]3O[C@]132", -0.23),
    ("CC(=O)O[C@H]1C=C([C@H](C)[C@H]2CC(C)=C(C)C(=O)O2)[C@@]2(C)CC[C@H]3[C@@H](C[C@H]4O[C@]45[C@@H](O)C=CC(=O)[C@]35C)[C@]12O", 0.39),
    ("CC(=O)O[C@H]1C=C([C@H](C)[C@H]2CC(C)=C(C)C(=O)O2)[C@@]2(C)CC[C@H]3[C@@H](C[C@H]4O[C@]45[C@@H](OC(C)=O)C=CC(=O)[C@]35C)[C@]12O", -0.10),
    ("CCC(C)C(NC(=O)OC(C)(C)C)C(=O)O[C@H]1C=CC(=O)[C@]2(C)[C@H]3CC[C@]4(C)C([C@H](C)[C@H]5CC(C)=C(C)C(=O)O5)=C[C@H](OC(C)=O)[C@@]4(O)[C@@H]3C[C@H]3O[C@]132 (some centres not stated)", 0.03),
]
